- TARGET_OF_ASSAY: T1, naked peptide SSMEDYVNFN (human)
- T1 peptide: SSMEDYVNFN
- RUN_DESCRIPTION: ELISA naked peptide; scFv 1 ug/mL; repII
PROPERTY_NAME: OD450 (OD)

- BINDER: "Comparative antibody 3 (Comp-3) scFv, SR_92R (Somovilla-Crespo et al. 2018), His-tagged (scFv) scFv: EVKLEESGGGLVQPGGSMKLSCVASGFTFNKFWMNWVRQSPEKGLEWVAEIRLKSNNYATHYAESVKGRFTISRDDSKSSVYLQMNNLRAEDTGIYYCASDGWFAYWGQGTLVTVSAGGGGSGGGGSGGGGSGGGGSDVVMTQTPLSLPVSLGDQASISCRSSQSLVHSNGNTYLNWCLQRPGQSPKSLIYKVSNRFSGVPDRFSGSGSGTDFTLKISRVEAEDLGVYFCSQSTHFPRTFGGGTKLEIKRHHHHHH"
  REPORTED_MEASUREMENT: 0.08
- BINDER: "Comparative antibody 2 (Comp-2) scFv, 243LO326 (VH SEQ ID NO: 51 and VL SEQ ID NO: 52 of WO 2022/195028 A2), His-tagged (scFv) scFv: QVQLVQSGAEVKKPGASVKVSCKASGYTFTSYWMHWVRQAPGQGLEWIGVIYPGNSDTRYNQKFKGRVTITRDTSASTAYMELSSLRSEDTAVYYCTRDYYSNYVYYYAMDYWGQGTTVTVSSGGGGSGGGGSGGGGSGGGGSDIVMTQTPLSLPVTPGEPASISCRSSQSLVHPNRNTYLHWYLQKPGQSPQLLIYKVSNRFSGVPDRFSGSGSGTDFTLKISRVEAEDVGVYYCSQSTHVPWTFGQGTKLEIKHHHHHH"
  REPORTED_MEASUREMENT: 0.09
- BINDER: "Comparative antibody 1 (Comp-1) scFv, SEQ ID NO: 10 from WO2023/037125 A1, His-tagged (scFv) scFv: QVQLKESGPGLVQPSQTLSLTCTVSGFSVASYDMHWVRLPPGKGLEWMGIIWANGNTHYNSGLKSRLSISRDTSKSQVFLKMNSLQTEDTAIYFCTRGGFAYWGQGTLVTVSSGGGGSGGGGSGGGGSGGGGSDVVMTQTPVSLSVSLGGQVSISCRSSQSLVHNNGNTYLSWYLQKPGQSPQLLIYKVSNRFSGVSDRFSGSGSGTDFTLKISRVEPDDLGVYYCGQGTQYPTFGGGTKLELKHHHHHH"
  REPORTED_MEASUREMENT: 0.09
- BINDER: "CCR9_HUM2 scFv (humanized anti-CCR9 scFv, SEQ ID NO: 17 with C-terminal 6xHis tag) (scFv) scFv: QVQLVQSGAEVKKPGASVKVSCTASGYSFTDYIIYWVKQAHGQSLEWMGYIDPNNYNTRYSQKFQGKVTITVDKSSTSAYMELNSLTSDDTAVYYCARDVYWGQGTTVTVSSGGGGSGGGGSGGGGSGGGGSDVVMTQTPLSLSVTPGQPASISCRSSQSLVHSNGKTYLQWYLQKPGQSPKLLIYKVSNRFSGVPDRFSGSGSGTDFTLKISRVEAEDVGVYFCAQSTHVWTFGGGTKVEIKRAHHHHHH"
  REPORTED_MEASUREMENT: 0.99
